Target: Pdr3 (UniProt P33200)
Sequence: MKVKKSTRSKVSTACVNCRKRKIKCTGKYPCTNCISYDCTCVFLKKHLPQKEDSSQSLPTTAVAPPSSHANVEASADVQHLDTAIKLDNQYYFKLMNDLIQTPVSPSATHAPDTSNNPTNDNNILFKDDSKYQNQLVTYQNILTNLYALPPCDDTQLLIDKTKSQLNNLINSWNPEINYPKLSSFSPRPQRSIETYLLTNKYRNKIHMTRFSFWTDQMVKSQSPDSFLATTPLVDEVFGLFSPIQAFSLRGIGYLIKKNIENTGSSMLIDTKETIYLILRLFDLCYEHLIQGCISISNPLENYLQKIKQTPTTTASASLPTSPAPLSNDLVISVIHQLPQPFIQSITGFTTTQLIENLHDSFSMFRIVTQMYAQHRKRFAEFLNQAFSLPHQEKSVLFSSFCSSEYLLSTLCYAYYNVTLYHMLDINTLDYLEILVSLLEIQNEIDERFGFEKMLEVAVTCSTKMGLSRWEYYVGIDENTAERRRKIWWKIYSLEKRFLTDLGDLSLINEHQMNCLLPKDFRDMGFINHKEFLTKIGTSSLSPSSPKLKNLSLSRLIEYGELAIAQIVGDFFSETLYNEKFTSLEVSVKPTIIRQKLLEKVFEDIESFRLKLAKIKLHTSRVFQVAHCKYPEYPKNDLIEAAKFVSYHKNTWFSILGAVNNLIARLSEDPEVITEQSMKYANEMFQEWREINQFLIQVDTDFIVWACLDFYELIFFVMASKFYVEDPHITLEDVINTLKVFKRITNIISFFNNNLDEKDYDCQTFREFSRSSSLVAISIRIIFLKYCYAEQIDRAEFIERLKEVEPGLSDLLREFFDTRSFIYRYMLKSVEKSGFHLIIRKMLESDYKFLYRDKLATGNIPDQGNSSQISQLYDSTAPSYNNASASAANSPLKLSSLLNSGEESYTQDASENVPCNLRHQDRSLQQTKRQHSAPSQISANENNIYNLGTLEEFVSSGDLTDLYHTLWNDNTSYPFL
Experiment: PBM E-score (8-mer binding enrichment) (E-score (-0.5 to 0.5)); higher = stronger / more preferred TF binding
Conditions: protein concentration: 200 nM; construct: GST-full length
Whole data set: some 33,000 sequences, median “E-score (-0.5 to 0.5)” near -0.035, cut for the highest 2% near 0.35. The sample as a whole holds a higher share of the highest values than the screen did.
Kind request: treat 0.04 as inclusive, so PBM E-score at 0.04 or higher is yes, anything lower is no.

Reference set (8 entries):
biosequence | assayed_system | label_value
CGGAGCAC | Pdr3 (UniProt P33200) | yes
AGAGGATG | Pdr3 (UniProt P33200) | no
CGGATCAG | Pdr3 (UniProt P33200) | yes
AGGAGCCG | Pdr3 (UniProt P33200) | no
CGGAGCAG | Pdr3 (UniProt P33200) | yes
CGGAGCAA | Pdr3 (UniProt P33200) | yes
CGGATCAC | Pdr3 (UniProt P33200) | yes
CATCTACC | Pdr3 (UniProt P33200) | yes

Ask: Does the sequence `TCAATAGA` have recorded PBM E-score that is 0.04 or more?
Reply: no

Ask: // inclusive: PBM E-score at least 0.04? input: `CCGAGCCA`
Reply: yes

// provenance: the supplement of paper PMC3334620
